# protocol description: qHTS assay to identify small molecule antagonists of the estrogen related receptor signaling pathway with the pleiotropic PPARgamma coactivator (PGC) from Tox21 10K library (AID 1224841); also: actives are mostly falling curves and most rising ones were filed inactive; nearly all actives have a fitted effect of over 50% in size
# applied conditions: PGC/ERR reporter cell line, ONE-Glo luciferase, 18 h; series mostly up to 92.4 µM
Inconclusive results are not listed. Activity calls are given as the source filed them. No rule for the calls is given here.
// classify into 1 (yes) (active), 0 (no) (inactive)

Consider the worked cases shown below.
* CCCCCCCC/C=C\CCCCCCCCO | 0 (no)
* CC(C)Nc1cccnc1N1CCN(C(=O)c2cc3cc(NS(C)(=O)=O)ccc3[nH]2)CC1 | 0 (no)
* CCCCCCC(C)(C)C(=O)O | 0 (no)
* c1cc(N(CC2CO2)CC2CO2)ccc1Cc1ccc(N(CC2CO2)CC2CO2)cc1 (configuration not stated) | 1 (yes)
* CS(=O)(=O)c1ccc(-c2cn3ccccc3n2)cc1 | 0 (no)
* C(=C\c1ccccc1)/c1ccccc1 | 0 (no)

## Task Which outcome was assigned to `C=C/C(C)=C/C/C=C(\C)CCC=C(C)C` in this test?
## Result 0 (no)

## Task Record lookup: outcome of this test for `C[C@@H](CN(C)C)CN1c2ccccc2Sc2ccccc21` ?
## Result 0 (no)

## Task Entry `CCC1(CO)COCOC1` : call = ?
## Result 0 (no)

* * *

# protocol description: qHTS RealTime-Glo MT Cell Viability Assay in HEK293 cells - 32 hour (AID 1224868); also: top concentration of the series differs between compounds; % is scaled to controls: 0 for no effect and ±100 for the full control effect; nearly all actives have a fitted effect of over 50% in size
# applied conditions: RealTime-Glo luminescence; series mostly up to 76.8 µM
Results filed as inconclusive are left out. Calls of active or inactive are those of the source. Calls follow the shape of the dose curve; as a rule, active = well fitted cell-killing curve with a large enough effect in the repeat runs; inconclusive = weak or mixed curves, or effect the other way; inactive = flat fitted curve, though single readings scatter.
Hello, when you answer, please use one of the following outcomes: active, inactive

Worked examples, 2 compounds total:
* CC(C)(c1ccccc1)c1ccccc1 | inactive
* OC1(c2ccccc2)CCNCC1 | inactive

## Task // return assay outcome for CCOC(=O)OC(C)OC(=O)[C@@H]1N2C(=O)[C@@H](NC(=O)[C@H](N)c3ccccc3)[C@H]2SC1(C)C (some centres undefined)
## Result inactive

## Task Recorded test call requested for `CCOC(=O)[C@H](CCc1ccccc1)N[C@@H](C)C(=O)N(CC(=O)O)C1Cc2ccccc2C1`
## Result inactive

## Task Entry `CC1(C)[C@@H](OC(=O)CCC(=O)O)CC[C@]2(C)[C@H]3C(=O)C=C4[C@@H]5C[C@@](C)(C(=O)O)CC[C@]5(C)CC[C@@]4(C)[C@]3(C)CC[C@@H]12` : call = ?
## Result inactive

## Task For `C=C1c2cccc(O)c2C(O)=C2C(=O)[C@]3(O)C(O)=C(C(N)=O)C(=O)[C@@H](N(C)C)[C@@H]3[C@@H](O)[C@H]12` , which call appears in the assay record?
## Result inactive

## Task Could you please tell me the result logged for `CC(=O)c1ccc([N+](=O)[O-])cc1` in this assay?
## Result inactive

## Task Per the records of this test, what outcome belongs to `CCOc1ccccc1O[C@H](c1ccccc1)[C@H]1CNCCO1` ?
## Result inactive

## Task Please state the recorded outcome for this compound: `c1ccc2c(c1)CCc1ccccc1N2`
## Result inactive

* * *

# assayed system: Cytochrome P450 2C9 (Homo sapiens)
# protocol description: Cytochrome P450 Family 2 Subfamily C Member 9 (CYP2C9) small molecule antagonists: luciferase reporter qHTS assay (AID 1671198); also: nearly all actives have a fitted effect of over 50% in size; also: potency is read from the fitted curve at half-maximal effect
# applied conditions: P450-Glo CYP2C9 enzyme assay, luciferin luminescence; series mostly up to 115 µM
Records with an inconclusive call do not appear. Calls of active or inactive are those of the source. Calls follow the shape of the dose curve; as a rule, active = well fitted inhibition curve with a large enough effect in the repeat runs; inconclusive = weak or mixed curves; inactive = no such curve, though single readings can be large or run the other way.
experimental readout: Potency

Example entries begin here.
• C=C1C[C@@]23CC[C@H]4[C@@](C)(CCC[C@@]4(C)C(=O)O[C@@H]4O[C@H](CO)[C@@H](O)[C@H](O)[C@H]4O)[C@@H]2CC[C@]1(O[C@@H]1O[C@H](CO)[C@@H](O)[C@H](O[C@@H]2O[C@H](CO)[C@@H](O)[C@H](O)[C@H]2O)[C@H]1O[C@@H]1O[C@H](CO)[C@@H](O)[C@H](O)[C@H]1O)C3 = inactive
• CCCCCCC(C)(C)C(=O)O = 31.7 µM (active)
• Cc1cc2c(OCC(CNC(C)(C)C)OC(=O)c3ccccc3)cccc2[nH]1 (stereo unspecified) = 7.76 µM (active)
• Cc1[nH]cnc1CN1CCc2c(c3ccccc3n2C)C1=O = 2.19 µM (active)
• CCC1(CO)COCOC1 = inactive

## Task Please give the measured Potency for this molecule: CN1C(=O)N(c2ccccc2Br)Cc2cnc(Nc3ccc4c(c3)OCC(CO)O4)nc21 (stereo unspecified)
## Result 11.2 µM (active)

## Task Requested read-out: Potency. Entry: `O=C=Nc1cccc(C(F)(F)F)c1`
## Result inactive

## Task Which Potency value is on record for CC(O)c1ccccc1 (stereo unspecified) ?
## Result inactive

## Task Which measured Potency value corresponds to `COc1ccc(OC(=O)N(CC(=O)O)Cc2ccc(OCCc3nc(-c4ccccc4)oc3C)cc2)cc1` ?
## Result 13.8 µM (active)

## Task Name the recorded Potency for `O=C(/C=C/c1ccccc1)OCCc1ccccc1` .
## Result 25.2 µM (active)

## Task Fill blank: measured Potency of the molecule `CC(CO)CO` is ____.
## Result inactive

## Task Looking for the measured Potency of `CC(=O)OCCN(CCOC(C)=O)c1ccc(N=Nc2ccc([N+](=O)[O-])cc2C#N)cc1` , can you help?
## Result 15.9 µM (active)

## Task // query Potency value for entry `FC(F)(F)c1ccccc1Cl`
## Result inactive

## Task What Potency value was documented for this molecule, `C=COCC(C)C` ?
## Result inactive

* * *

# protocol description: qHTS assay to identify small molecule antagonists of the sonic hedgehog signaling (Shh) pathway (AID 1259369); also: nearly all actives have a fitted effect of over 45% in size
# applied conditions: NIH/3T3 Gli1-Luc reporter, Shh antagonist, luminescence 24 h; series mostly up to 92.4 µM
Records with an inconclusive call do not appear. The source made the active and inactive calls. The call rests on the fitted dose curve.
Outcome field: choose from y for active, n for inactive

Here are 3 compounds together with their reported answers.
- Cc1cc(O)c(C)c(C)c1O: n
- Nc1nc2ccc([N+](=O)[O-])cc2s1: y
- C=Cc1ccc(S(=O)(=O)O)cc1: y

# ---- query compound ----
## Task For this compound, state the assay outcome: `CNC(=O)c1cnn(-c2nc(N)c3ncn([C@@H]4O[C@H](CO)[C@@H](O)[C@H]4O)c3n2)c1`
## Result n

* * *

# protocol description: qHTS assay to identify small molecule antagonists of the estrogen receptor beta (ER-beta) signaling pathway - cell viability counter screen (AID 1259382); also: nearly all actives have a fitted effect of over 55% in size
# applied conditions: ER-beta-UAS-bla HEK293T viability, CellTiter-Glo luminescence, 16 h; series mostly up to 92.4 µM
Inconclusive results are not listed. Calls of active or inactive are those of the source. Calls follow the shape of the dose curve; as a rule, active = well fitted cell-killing curve with a large enough effect in the repeat runs; inconclusive = weak or mixed curves; inactive = flat fitted curve, though single readings scatter.
Field 'call' accepts active, inactive

Reference set (2 entries):
* CCCCC(CC)CN (configuration not stated) | inactive
* CC(C)=CCC/C(C)=C/CC/C(C)=C/CCC(=O)OC/C=C(\C)CCC=C(C)C | inactive

## Task Would you mind telling me which call this test gave `C=C(C)C(=O)OCCCCCCCCCCCCC` ?
## Result inactive

## Task Which result was noted for this compound in the test: `C[C@@H](CN(C)C)CN1c2ccccc2Sc2ccccc21`
## Result active

* * *

# protocol description: qHTS assay to identify small molecule antagonists of the androgen receptor (AR) signaling pathway using the MDA cell line - cell viability counter screen (AID 743041; also: nearly all actives have a fitted effect of over 45% in size)
# applied conditions: MDA-kb2 viability, CellTiter-Fluor, 16 h, cells co-treated with R1881 androgen agonist; series mostly up to 70.3 µM
Records with an inconclusive call do not appear. Active and inactive are the calls of the source. Calls come from the whole dose curve; as a rule, active = well fitted cell-killing curve with a large enough effect in the repeat runs; inconclusive = weak or mixed curves, or effect the other way; inactive = flat fitted curve, though single readings scatter.
Field 'call' accepts TRUE (active), FALSE (inactive)

- CC(C)C[C@H](NC(=O)[C@H](CCc1ccccc1)NC(=O)CN1CCOCC1)C(=O)N[C@@H](Cc1ccccc1)C(=O)N[C@@H](CC(C)C)C(=O)[C@@]1(C)CO1: FALSE
- Nc1nnc(-c2ccc([N+](=O)[O-])o2)o1: TRUE
- CC(CCC(=O)O)C(=O)O (configuration not stated): FALSE
- Cc1ccc(CO)cc1: FALSE
- O=C1Cc2ccccc2N1c1c(Cl)cccc1Cl: FALSE

## Task So what was the verdict on `Oc1c(I)cc(I)c2cccnc12` in this test?
## Result FALSE

## Task // return assay outcome for `O=C1c2ccccc2C(=O)C1c1ccc(Br)cc1`
## Result FALSE

## Task Which outcome was entered for the molecule `CC(C)C=O` in this test?
## Result FALSE

* * *

Quick list: activity change, positive = activation per entry.
# protocol description: qHTS assay to identify small molecule agonists of the estrogen related receptor (ERR) signaling pathway from Tox21 library (AID 1224849); also: % is scaled to controls: 0 for no effect and ±100 for the full control effect; nearly all actives have a fitted effect of over 15% in size
# applied conditions: ERR reporter cell line, ONE-Glo luciferase, 18 h; at 92.4 µM (top of the series) unless noted
Active and inactive are the calls of the source. Calls follow the shape of the full dose curve.

Known activity change, positive = activation results, listed for orientation:
- C[C@@H](CN(C)C)CN1c2ccccc2Sc2ccccc21: -18.9% [at 42.5 µM] (inactive)
- O=Cc1c2ccccc2c(Cl)c2ccccc12: -33.4% [at 42.5 µM] (inactive)
- CC(C)(O)c1ccc(CNC(=O)c2cccnc2Oc2ccc3nonc3c2)cc1: -39.3% (inactive)
- COc1ccccc1NC(=O)c1cc2ccccc2cc1O: -49.7% (inactive)
- CN1C(=O)c2ccccc2C1=O: 1.36% (inactive)
- CC(C)=CCC/C(C)=C/CC/C(C)=C/C(=O)OCC(=O)[C@@]1(O)CC[C@H]2[C@@H]3CCC4=CC(=O)C=C[C@]4(C)[C@H]3[C@@H](O)C[C@@]21C: -50.7% [at 42.5 µM] (inactive)
- CC(O)c1ccccc1 (stereo unspecified): 5.42% (inactive)
- Cc1c(C)c2c(c(C)c1OC(=O)CCC(=O)OCCO)CC[C@@](C)(CCC[C@H](C)CCC[C@H](C)CCCC(C)C)O2: -48.8% [at 42.5 µM] (inactive)

## Task Look at this molecule and give its reported activity change, positive = activation. CCOC(=O)C1=C(C)NC(C)=C(C(=O)OC)C1c1cccc(Cl)c1Cl (stereo unspecified)
## Result -28.7% [at 42.5 µM] (inactive)

## Task Fill in the blank: the reported activity change, positive = activation of `C=C(C)C(=O)OCCOCCOC(=O)C(=C)C` is ____.
## Result 6.4% (inactive)

## Task Need activity change, positive = activation, item CC(CN(C)C)C(C)(O)Cc1ccc(Cl)cc1 (stereo unspecified)
## Result 9.4% [at 42.5 µM] (inactive)

Every entry's value here was drawn from PubChem BioAssay (Tox21).
